Experiment: in vitro
Settings: human, microsomes
microsomal CLint under 20 µL/min/mg gets fulfilled, anything at or over 20 µL/min/mg gets not fulfilled.

>  <compound>
O=C(CSc1nc2c(c(=O)n1-c1ccccc1)SCC2)Nc1ccc(-c2ccccc2)cn1

>  <label class>
not fulfilled

$$$$
>  <compound>
CCCCC1=NC2(CCCC2)C(=O)N1Cc1ccc(-c2ccccc2-c2nnn[nH]2)cc1

>  <label class>
fulfilled

$$$$
>  <compound>
O=C1Nc2ccccc2B(O)N1c1ccccc1

>  <label class>
fulfilled

$$$$
>  <compound>
CC(C)(C)NS(=O)(=O)c1cncc(-c2ccc3nc(N)nn3c2)c1

>  <label class>
fulfilled

$$$$
>  <compound>
CSc1ccc2c(c1)N(CCC1CCCCN1C)c1ccccc1S2 (stereo not given)

>  <label class>
not fulfilled

$$$$
>  <compound>
CNc1nc(C)c(-c2nc(Nc3cccc(N4CCNCC4)c3)ncc2C#N)s1

>  <label class>
fulfilled

$$$$
>  <compound>
COc1ccc2nc(C)cc(OCC(=O)Nc3ccccc3OC)c2c1

>  <label class>
not fulfilled

$$$$
>  <compound>
O=C(CCOCCc1ccccc1)NCCNCCc1ccc(O)c2nc(O)sc12

>  <label class>
not fulfilled

$$$$
>  <compound>
O=C(O)c1cncc(-c2ccc(Cl)c(C(=O)NCC34CC5CC(CC(C5)C3)C4)c2)c1

>  <label class>
not fulfilled

$$$$
>  <compound>
CC(C)(CCCCCOCCc1ccccc1)NCCc1ccc(O)c2nc(O)sc12

>  <label class>
not fulfilled

$$$$
>  <compound>
N#Cc1cccc(NCC(=O)Nc2c(Cl)ccc3nc(N4CC[C@@H](O)C4)ccc23)c1

>  <label class>
not fulfilled

$$$$
>  <compound>
CCS(=O)(=O)c1ccc(-c2cc(Cl)ccc2OCC(=O)O)c(F)c1

>  <label class>
fulfilled

$$$$
>  <compound>
Cc1ccc(C(=O)NC2CC2)cc1-c1ccc(C(=O)NCC2CC2)nc1

>  <label class>
fulfilled

$$$$
>  <compound>
CCOc1cc2ncc(C(N)=O)c(Nc3ccc(C)cc3F)c2cc1N1CCN(C)CC1

>  <label class>
not fulfilled

$$$$
>  <compound>
C[C@@H]1CN(Cc2cc(Cl)ccc2OCC(=O)O)C[C@H](C)N1C(=O)Cc1ccccc1

>  <label class>
fulfilled

$$$$
>  <compound>
C[C@H]1CN(Cc2cc(Cl)ccc2CC(=O)O)CCN1S(=O)(=O)Cc1ccccc1

>  <label class>
fulfilled

$$$$
>  <compound>
Cc1cc(Cl)ccc1OC1CCN(C[C@H](O)CNC(=O)c2c[nH]nc2C(F)(F)F)CC1

>  <label class>
fulfilled

$$$$
>  <compound>
CCNC(=O)C[C@@H]1N=C(c2ccc(Cl)cc2)c2cc(OC)ccc2-n2c(C)nnc21

>  <label class>
fulfilled

$$$$
>  <compound>
OC[C@H]1C[C@@H](n2nnc3c(N[C@@H]4C[C@H]4c4ccccc4)nc(SCCC(F)(F)F)nc32)[C@H](O)[C@@H]1O

>  <label class>
fulfilled

$$$$
>  <compound>
Cc1c(Oc2ccc(Cl)cc2)c2c(NS(C)(=O)=O)cccc2n1CC(=O)O

>  <label class>
fulfilled

$$$$

---

Assay: in vitro
Details: human, plasma, PPB
Where a name gives a salt, the structure may show the parent alone.
The entries below are paired with their reported fraction unbound at 5 h.

>  <compound>
CCOc1cccc(/C=C2\SC(=O)NC2=O)c1N1CCC[C@@H](N)C1

>  <fraction unbound at 5 h>
0.0521

$$$$
>  <compound>
CCOc1cc2ncc(C(N)=O)c(Nc3cccc(Cl)c3Cl)c2cc1N1CCCN(C)CC1

>  <fraction unbound at 5 h>
0.0163

$$$$
>  <compound>
COC(=O)/C=C/C(=O)O [MONOMETHYL FUMARATE]

>  <fraction unbound at 5 h>
0.139

$$$$
>  <compound>
Cc1cc(CCCOc2c(Cl)cc(C3=NCCO3)cc2Cl)on1

>  <fraction unbound at 5 h>
0.0034

$$$$
>  <compound>
O=C1NC(=O)C(c2cnc3ccccn23)=C1c1cn2c3c(cccc13)CN(C(=O)N1CCOCC1)CC2

>  <fraction unbound at 5 h>
0.142

$$$$
>  <compound>
CN(C)CCC1CCN(c2cc(C(=O)NC[C@H]3CC[C@H](CNC(=O)OC4CCOCC4)CC3)c3ccccc3n2)CC1

>  <fraction unbound at 5 h>
0.179

$$$$
>  <compound>
O=C(CSc1nc2c(c(=O)n1-c1ccccc1)SCC2)Nc1ccc(-c2ccccc2)cn1

>  <fraction unbound at 5 h>
0.0017

$$$$
>  <compound>
CCS(=O)(=O)c1ccc(-c2cc(Cl)ccc2OCC(=O)O)c(Cl)c1

>  <fraction unbound at 5 h>
0.0268

$$$$
>  <compound>
Cc1nc(C(F)(F)F)ccc1C(=O)Nc1ccc(Cl)c(-c2ccccn2)c1

>  <fraction unbound at 5 h>
0.0099

$$$$
>  <compound>
Cc1cc(Nc2cc(N3CCOCC3)nc(N[C@@H](C)c3ncc(F)cn3)n2)[nH]n1

>  <fraction unbound at 5 h>
0.54

$$$$
>  <compound>
CC(C)Cn1c(=O)n(C)c(=O)c2c(C(=O)N3CC[C@@H](O)C3)c(Cc3c[nH]c4ncccc34)sc21

>  <fraction unbound at 5 h>
0.314

$$$$
>  <compound>
COc1nc(Br)cnc1NS(=O)(=O)c1ccc(Cl)s1

>  <fraction unbound at 5 h>
0.0013

$$$$
>  <compound>
COc1ncc(-c2cccc(C#N)c2CCNC(=O)c2ccc(OCCC(F)(F)F)nc2)cn1

>  <fraction unbound at 5 h>
0.119

$$$$
>  <compound>
Cc1cc(-c2cc(=O)[nH]c(NCc3cccc4ccccc34)n2)ccn1

>  <fraction unbound at 5 h>
0.0025

$$$$
>  <compound>
Cc1ncc(NC(=O)c2cc(NC(=O)c3cc(F)cc(C(F)(F)F)c3)ccc2Cl)s1

>  <fraction unbound at 5 h>
0.0035

$$$$
>  <compound>
CS(=O)(=O)c1ccc(-c2cc(Cl)ccc2OCC(=O)O)c(Cl)c1

>  <fraction unbound at 5 h>
0.0251

$$$$
>  <compound>
CC(C)Cc1nn(C)c(=O)c2c(SCCCO)n(Cc3cccc4ccccc34)cc12

>  <fraction unbound at 5 h>
0.0027

$$$$
>  <compound>
O=C(Nc1ccc(N2CCNCC2)cc1)c1ccc(-c2ccc(Cl)cc2)o1

>  <fraction unbound at 5 h>
0.0268

$$$$
>  <compound>
N#Cc1ccc2c(c1)NC(=O)C2c1ncnc2cc(OCCCN3CCOCC3)ccc12 (stereo not given)

>  <fraction unbound at 5 h>
0.013

$$$$
>  <compound>
Cc1cc(Nc2nc(N[C@@H](C)c3ccc(F)cc3)ncc2Cl)n[nH]1

>  <fraction unbound at 5 h>
0.009

$$$$

Recorded values, source ChEMBL document CHEMBL3301361.
